The measured values listed here are drawn from paper PMC8177101.

Assay: CellTiter Glo cytotoxicity
Type: cell-based
Settings: human
outcomeMeasure: IC50

Item C1OC1C1CO1 (stereo not shown) [DEB, 1,2,3,4-diepoxybutane] : provide IC50
2 to 6 µM
